test system: LAETG (Abz-LAETGK(Dnp)-CONH2); test: In vitro sortase kinetics HPLC assay, LAETG substrate; format: biochemical; conditions: ratio of kcat/Km between 2A (LAETG) and wt (LPETG) substrates, favoured over disfavoured
Reported specificity (relative cat. Efficiency, fold) values are given for each entry in this list.
Unit fold implied. Number only.

{"Molecule": "eSrtA (protein) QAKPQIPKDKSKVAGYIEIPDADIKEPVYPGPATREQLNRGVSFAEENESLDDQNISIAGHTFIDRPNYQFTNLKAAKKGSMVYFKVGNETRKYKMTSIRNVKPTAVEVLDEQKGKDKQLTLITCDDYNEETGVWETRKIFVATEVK", "Value observed": 122.6}
{"Molecule": "eSrtA(2A-4): 5mut + A104H K162R V168I I182V (protein) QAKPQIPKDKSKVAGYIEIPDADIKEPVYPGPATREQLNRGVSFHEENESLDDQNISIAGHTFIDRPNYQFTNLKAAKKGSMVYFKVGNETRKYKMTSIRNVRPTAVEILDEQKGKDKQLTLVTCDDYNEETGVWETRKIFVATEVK", "Value observed": 73.05}
{"Molecule": "eSrtA(2A-5): 5mut + R99H A104H K138I K162R I182V (protein) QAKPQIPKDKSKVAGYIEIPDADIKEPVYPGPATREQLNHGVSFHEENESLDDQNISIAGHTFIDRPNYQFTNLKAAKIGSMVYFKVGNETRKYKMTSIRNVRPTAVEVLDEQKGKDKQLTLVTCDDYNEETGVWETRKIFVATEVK", "Value observed": 115.7}
{"Molecule": "2A.6C: 5mut + A104H K138P K152I D160K* K162R I182V (protein) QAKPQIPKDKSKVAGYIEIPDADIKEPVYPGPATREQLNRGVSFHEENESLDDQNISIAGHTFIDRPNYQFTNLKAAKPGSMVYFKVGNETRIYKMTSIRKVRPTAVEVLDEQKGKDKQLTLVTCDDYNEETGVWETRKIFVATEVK", "Value observed": 61.61}

Exercise: May I ask what specificity (relative cat. Efficiency, fold) has been recorded for 2A.6A: 5mut + A104H K138V K162R I182V (protein) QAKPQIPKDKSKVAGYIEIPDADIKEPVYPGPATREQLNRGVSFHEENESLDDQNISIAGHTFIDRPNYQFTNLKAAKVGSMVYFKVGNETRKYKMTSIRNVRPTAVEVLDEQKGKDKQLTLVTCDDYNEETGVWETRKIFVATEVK ?
Solution: 86.36
